METHOD NOTES: protein stability index of a GFP-peptide fusion (yeast GPS) (PSI 1-4); higher = more stable; sorted into four equal gates, so the index is relative within each strain
CONDITION DESCRIPTION: doa10∆
Hi, to clarify the labels: Yes covers protein stability index from 2 upward, No covers anything below 2.

[[record]]
ordered_residues = "MAYTSHLSSKTGLHFGR [QCR10]"
assigned_category = "Yes"

[[record]]
ordered_residues = "LDKVINKELPINHTILG [RPN8]"
assigned_category = "Yes"

[[record]]
ordered_residues = "FVWLSSEENIGSGLLKL [SWI1]"
assigned_category = "Yes"


// query Is reported protein stability index greater than or equal to 2 here: LLRIQMLLCVSYFLQER [PCI8]
// result No

// query Item IQSAESIKSQKEEISDQ [SWI3] with protein stability index of 2 or above?
// result Yes

// query Kindly determine if protein stability index recorded for EAESQLRAAQQQWGNDF [FAS2] is above or exactly 2.
// result Yes

// query Dear colleague, could you confirm whether DNIGEIDESLFNLLILS [YCG1] has protein stability index at or above 2?
// result Yes

// query Check this sequence for protein stability index at or above 2: SLVEVVFYRGMTMQVAV [FAS1]
// result No

// query Is reported protein stability index greater than or equal to 2 here: QDLSRNTLGKGQNCLDI [SNU114]
// result Yes

// query Reported protein stability index reaches at least 2 for PGDIVRAQVLSLGDGTN [CSL4] ?
// result Yes

// query Check this sequence for protein stability index at or above 2: GTSKYLINGHRAPQQSV [SMC2]
// result Yes

// query Does PTLPTNHNKTKLLKSLK [PRP8] have a reported protein stability index of at least 2?
// result Yes

// query Is protein stability index at least 2? Consider IALILAIQMVDPASFYL [SMC3]
// result No

* * *

METHOD NOTES: protein stability index of a GFP-peptide fusion (yeast GPS) (PSI 1-4); higher = more stable; sorted into four equal gates, so the index is relative within each strain
CONDITION DESCRIPTION: pdr5∆
MEASUREMENT NAME: protein stability index
Hey, just send me the number, nothing else.

The cases that follow already have their protein stability index on record.
[[record]]
ordered_residues = "LKLPADATTWRYSMSEQ [IRR1]"
readout_number = 2.65

[[record]]
ordered_residues = "TDKVSLSQPVSASKHEY [SIR4]"
readout_number = 2.53

[[record]]
ordered_residues = "ETELFEPGVLNTGDGSI [ECM29]"
readout_number = 3.2


// query Need protein stability index of PAEVGRAIRSEKYGKQV [BRR2] , thanks.
// result 3.15

// query Which protein stability index value is on record for QFTLYDRELNEVINQME [SMC3] ?
// result 3.09

// query Fill in the blank: the reported protein stability index of DEEIIQLHFSLLDEEAE [RPO21] is ____.
// result 3.01

// query So what does the record say about protein stability index for TTSEKQEVTNEAPFLTS [GAL11] ?
// result 3.35

// query Quick check: protein stability index of VKKGPVRLPTKVLKIST [RPS20] ?
// result 2.22

* * *

METHOD NOTES: protein stability index of a GFP-peptide fusion (yeast GPS) (PSI 1-4); higher = more stable; sorted into four equal gates, so the index is relative within each strain
CONDITION DESCRIPTION: ubr1∆
Item-by-item account of protein stability index

See these solved cases before continuing.
[[record]]
ordered_residues = "AGLDKGISINNMMEHWD [RPO31]"
result = 3.14

[[record]]
ordered_residues = "LIENKIQNKKIQEQRVK [RPN8]"
result = 2.83

[[record]]
ordered_residues = "VDSQGLPYNWDALEMQW [ARP7]"
result = 1.91

[[record]]
ordered_residues = "LTDPMTVMFFYHNKHMM [DIB1]"
result = 1.76

[[record]]
ordered_residues = "QVVVDAITNTGPREDTT [RPS5]"
result = 2.73

[[record]]
ordered_residues = "VIEAKINHEDGFIETTE [RPN3]"
result = 1.13

[[record]]
ordered_residues = "WLETYSENRDKFLQEFI [IRR1]"
result = 1.92


Let's switch to this sequence now.
// query Data request, read-out protein stability index, for DPKTSLRIVKPTVSLTI [RPC82]
// result 3.34

The reported measurements were obtained from the supplement of paper PMC9732359.
